Target: T623A hERG (Homo sapiens, UniProt Q12809, T623A)
Construct: expressed in transfected cells; host or cells: HEK293
Sequence (Q12809 whole entry T623A): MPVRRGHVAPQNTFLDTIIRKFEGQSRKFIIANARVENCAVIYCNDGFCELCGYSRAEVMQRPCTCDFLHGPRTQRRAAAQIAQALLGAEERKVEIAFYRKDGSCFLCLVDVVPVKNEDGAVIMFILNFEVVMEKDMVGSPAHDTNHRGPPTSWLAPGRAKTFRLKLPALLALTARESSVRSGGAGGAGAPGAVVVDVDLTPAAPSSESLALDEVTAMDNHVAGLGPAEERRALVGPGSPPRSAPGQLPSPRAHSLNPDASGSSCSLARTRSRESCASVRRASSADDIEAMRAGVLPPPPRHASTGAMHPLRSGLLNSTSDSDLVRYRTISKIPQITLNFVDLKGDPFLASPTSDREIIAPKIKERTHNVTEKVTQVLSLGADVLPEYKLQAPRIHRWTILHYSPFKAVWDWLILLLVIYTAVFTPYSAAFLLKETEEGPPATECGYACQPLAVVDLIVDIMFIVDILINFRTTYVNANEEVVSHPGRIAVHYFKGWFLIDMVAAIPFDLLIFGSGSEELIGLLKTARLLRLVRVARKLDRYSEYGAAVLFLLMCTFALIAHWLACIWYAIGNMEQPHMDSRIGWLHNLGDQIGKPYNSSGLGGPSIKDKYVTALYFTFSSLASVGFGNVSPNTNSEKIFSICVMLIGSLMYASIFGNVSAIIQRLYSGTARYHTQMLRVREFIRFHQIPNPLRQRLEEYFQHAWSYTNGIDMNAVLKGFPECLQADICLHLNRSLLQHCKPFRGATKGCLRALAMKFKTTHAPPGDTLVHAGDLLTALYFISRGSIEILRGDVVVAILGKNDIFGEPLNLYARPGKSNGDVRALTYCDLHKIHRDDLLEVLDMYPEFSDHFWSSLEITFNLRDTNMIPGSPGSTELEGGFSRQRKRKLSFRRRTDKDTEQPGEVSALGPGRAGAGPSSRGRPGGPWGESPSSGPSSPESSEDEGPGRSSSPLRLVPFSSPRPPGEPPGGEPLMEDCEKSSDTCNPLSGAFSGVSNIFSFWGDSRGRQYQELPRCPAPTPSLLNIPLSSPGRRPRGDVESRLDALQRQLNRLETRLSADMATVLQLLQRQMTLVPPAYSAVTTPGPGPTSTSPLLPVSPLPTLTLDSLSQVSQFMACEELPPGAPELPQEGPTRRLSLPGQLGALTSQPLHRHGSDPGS
Assay: Whole-cell patch-clamp recording of IhERG, pore helix mutant T623A
Assay type: cell-based
Conditions: human, HEK293 cells expressing T623A hERG, pH 7.4; T623A; −120 mV, 94 mM K+
VALUE KIND: IC50 at 5 min

Prompt: Given the entry c1ccc(CCCNCCC(c2ccccc2)c2ccccc2)cc1 [Cavalli-2] , what IC50 at 5 min was observed with T623A hERG (Homo sapiens, UniProt Q12809, T623A)?
Completion: 281 nM

----------
Biological target: N588K hERG (Homo sapiens, UniProt Q12809, N588K)
Construct: expressed in transfected cells; host or cells: HEK293
Experiment: Whole-cell patch-clamp recording of IhERG, attenuated-inactivation mutant N588K
Format: cell-based
Conditions: human, HEK293 cells expressing N588K hERG, pH 7.4; N588K; −40 mV, 4 mM K+
VALUE KIND: IC50 at 5 min (nM)
Value expressed in nM; do not type the unit.

Prompt: So what does the record say about IC50 at 5 min for c1ccc(CCCNCCC(c2ccccc2)c2ccccc2)cc1 ?
Completion: 544

----------
Target: F557L hERG (Homo sapiens, UniProt Q12809, F557L)
Construct: expressed in transfected cells; host or cells: HEK293
Experiment: Whole-cell patch-clamp recording of IhERG, S5 mutant F557L
Format: cell-based
Conditions: human, HEK293 cells expressing F557L hERG, pH 7.4; F557L; −40 mV, 4 mM K+
Excerpt: A HEK293 cell line stably expressing WT hERG channels was kindly donated by Prof. Craig January ([51]). The pore helix (T623A and S624A) and S6 helix (F656A) alanine mutants, attenuated-inactivation mutants (N588K and S620T), and S5 mutant F557L were all generated and used as described previously ([3], [18], [41], [52]). The HEK293 cell line stably expressing the hERG S6 helix mutant Y652A was used in this study as described previously ([52]). […]
VALUE KIND: IC50 at 5 min (µM)
All answers are understood in µM, so give the number only.

Prompt: What reported IC50 at 5 min corresponds to c1ccc(CCCNCCC(c2ccccc2)c2ccccc2)cc1 [Cavalli-2] on F557L hERG (Homo sapiens, UniProt Q12809, F557L)?
Completion: 0.339

----------
Molecular target: S624A hERG (Homo sapiens, UniProt Q12809, S624A)
Construct: expressed in transfected cells; host or cells: HEK293
Sequence (Q12809 whole entry S624A): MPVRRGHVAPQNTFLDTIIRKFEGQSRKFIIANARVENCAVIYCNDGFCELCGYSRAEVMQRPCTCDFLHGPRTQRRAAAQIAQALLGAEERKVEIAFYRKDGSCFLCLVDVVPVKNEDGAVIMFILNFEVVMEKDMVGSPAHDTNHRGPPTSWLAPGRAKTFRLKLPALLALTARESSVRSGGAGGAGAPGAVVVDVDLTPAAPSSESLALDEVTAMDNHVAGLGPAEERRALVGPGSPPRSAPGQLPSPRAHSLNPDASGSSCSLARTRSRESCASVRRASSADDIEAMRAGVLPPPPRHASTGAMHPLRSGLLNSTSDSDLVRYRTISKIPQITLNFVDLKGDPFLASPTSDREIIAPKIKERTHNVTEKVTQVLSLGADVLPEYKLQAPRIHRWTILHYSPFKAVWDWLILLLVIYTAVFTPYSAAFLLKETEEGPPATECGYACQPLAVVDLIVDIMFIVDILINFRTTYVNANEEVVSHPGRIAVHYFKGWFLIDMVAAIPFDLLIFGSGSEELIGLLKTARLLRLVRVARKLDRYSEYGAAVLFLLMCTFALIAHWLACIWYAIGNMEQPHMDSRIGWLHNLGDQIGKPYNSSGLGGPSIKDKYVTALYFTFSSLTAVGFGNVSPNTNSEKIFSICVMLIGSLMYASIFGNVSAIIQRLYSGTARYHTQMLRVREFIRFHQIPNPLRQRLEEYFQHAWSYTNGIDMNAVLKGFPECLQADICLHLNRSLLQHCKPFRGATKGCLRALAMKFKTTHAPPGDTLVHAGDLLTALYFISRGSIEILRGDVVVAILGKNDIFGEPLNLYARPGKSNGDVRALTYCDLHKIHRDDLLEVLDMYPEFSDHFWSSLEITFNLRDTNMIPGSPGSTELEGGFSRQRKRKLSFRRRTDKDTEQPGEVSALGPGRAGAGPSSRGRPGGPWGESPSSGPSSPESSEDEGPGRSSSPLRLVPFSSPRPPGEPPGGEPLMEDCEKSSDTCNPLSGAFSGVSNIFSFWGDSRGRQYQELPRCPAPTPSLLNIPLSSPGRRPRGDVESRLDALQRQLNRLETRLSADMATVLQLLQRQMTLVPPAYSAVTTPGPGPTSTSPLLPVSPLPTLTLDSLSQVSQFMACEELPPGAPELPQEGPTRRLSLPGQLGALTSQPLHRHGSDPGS
Experiment: Whole-cell patch-clamp recording of IhERG, pore helix mutant S624A
Assay type: cell-based
Conditions: human, HEK293 cells expressing S624A hERG, pH 7.4; S624A; −40 mV, 4 mM K+
VALUE KIND: IC50 at 5 min
State the result as a value with its unit after it.

Prompt: Query IC50 at 5 min on S624A hERG (Homo sapiens, UniProt Q12809, S624A) for c1ccc(CCCNCCC(c2ccccc2)c2ccccc2)cc1
Completion: 262 nM

----------
Target: Y652A hERG (Homo sapiens, UniProt Q12809, Y652A)
Construct: expressed in transfected cells
Sequence (Q12809 whole entry Y652A): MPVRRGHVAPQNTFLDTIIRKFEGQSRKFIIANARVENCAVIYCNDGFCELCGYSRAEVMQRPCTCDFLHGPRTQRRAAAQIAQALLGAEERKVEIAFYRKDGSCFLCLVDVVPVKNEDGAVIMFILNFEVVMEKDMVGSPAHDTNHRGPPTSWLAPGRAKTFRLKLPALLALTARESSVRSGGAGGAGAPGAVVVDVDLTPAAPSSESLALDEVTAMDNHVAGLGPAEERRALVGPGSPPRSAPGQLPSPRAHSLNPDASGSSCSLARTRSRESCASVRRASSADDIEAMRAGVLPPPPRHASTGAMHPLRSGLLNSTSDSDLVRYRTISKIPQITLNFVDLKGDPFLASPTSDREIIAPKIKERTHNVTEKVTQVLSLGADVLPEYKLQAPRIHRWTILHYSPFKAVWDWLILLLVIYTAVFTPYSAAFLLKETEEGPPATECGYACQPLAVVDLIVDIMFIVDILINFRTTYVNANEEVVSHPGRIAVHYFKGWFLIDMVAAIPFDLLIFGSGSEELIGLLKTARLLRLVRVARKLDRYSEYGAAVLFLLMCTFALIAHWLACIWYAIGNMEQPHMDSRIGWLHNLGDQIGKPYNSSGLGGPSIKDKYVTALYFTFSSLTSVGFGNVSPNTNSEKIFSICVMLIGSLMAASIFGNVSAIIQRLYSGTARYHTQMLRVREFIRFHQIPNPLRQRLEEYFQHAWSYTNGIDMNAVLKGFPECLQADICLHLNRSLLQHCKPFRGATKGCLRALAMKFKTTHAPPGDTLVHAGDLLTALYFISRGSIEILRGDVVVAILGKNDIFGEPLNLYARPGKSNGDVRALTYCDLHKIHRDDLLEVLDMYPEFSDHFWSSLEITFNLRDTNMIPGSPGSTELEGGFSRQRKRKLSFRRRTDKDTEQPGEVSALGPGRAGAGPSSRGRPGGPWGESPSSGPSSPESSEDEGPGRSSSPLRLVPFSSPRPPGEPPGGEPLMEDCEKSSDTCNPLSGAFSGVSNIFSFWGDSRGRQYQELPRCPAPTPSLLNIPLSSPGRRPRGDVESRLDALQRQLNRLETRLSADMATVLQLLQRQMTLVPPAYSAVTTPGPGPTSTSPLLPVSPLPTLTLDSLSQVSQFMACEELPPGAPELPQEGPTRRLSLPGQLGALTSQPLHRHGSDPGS
Experiment: Whole-cell patch-clamp recording of IhERG, S6 helix mutant Y652A
Format: cell-based
Settings: human, HEK293 cells stably expressing Y652A hERG, pH 7.4; Y652A; −40 mV, 4 mM K+
VALUE KIND: IC50 at 5 min (nM)
Reply numerically in nM, unit not repeated.

Prompt: Dear colleague, I am looking for the recorded IC50 at 5 min of the following compound: c1ccc(CCCNCCC(c2ccccc2)c2ccccc2)cc1
Completion: 594

----------
Biological target: WT hERG (Homo sapiens)
Construct: expressed in transfected cells
Experiment: Whole-cell patch-clamp recording of IhERG, WT hERG in HEK293 cells at 37 °C
Format: cell-based
Details: human, HEK293 cells stably expressing WT hERG, pH 7.4; washout after 30 nM, five cells; read-out: recovery on washout, of control amplitude
VALUE KIND: recovery at 30 nM (%)
Give the value, in units of %, as a plain number.

Prompt: Which recovery at 30 nM reading was recorded for the compound c1ccc(CCCNCCC(c2ccccc2)c2ccccc2)cc1 ?
Completion: 59.5

----------
Target: F656A hERG (Homo sapiens, UniProt Q12809, F656A)
Construct: expressed in transfected cells; host or cells: HEK293
Assay: Whole-cell patch-clamp recording of IhERG, S6 helix mutant F656A
Format: cell-based
Conditions: human, HEK293 cells expressing F656A hERG, pH 7.4; F656A; −120 mV, 94 mM K+
VALUE KIND: IC50 at 5 min (nM)
Field: numeric (nM). Do not append units.

Prompt: Which value of IC50 at 5 min has been reported for c1ccc(CCCNCCC(c2ccccc2)c2ccccc2)cc1 [Cavalli-2] in the records?
Completion: 1320

----------
Molecular target: WT hERG (Homo sapiens, UniProt Q12809)
Construct: expressed in transfected cells
Sequence (Q12809 whole entry): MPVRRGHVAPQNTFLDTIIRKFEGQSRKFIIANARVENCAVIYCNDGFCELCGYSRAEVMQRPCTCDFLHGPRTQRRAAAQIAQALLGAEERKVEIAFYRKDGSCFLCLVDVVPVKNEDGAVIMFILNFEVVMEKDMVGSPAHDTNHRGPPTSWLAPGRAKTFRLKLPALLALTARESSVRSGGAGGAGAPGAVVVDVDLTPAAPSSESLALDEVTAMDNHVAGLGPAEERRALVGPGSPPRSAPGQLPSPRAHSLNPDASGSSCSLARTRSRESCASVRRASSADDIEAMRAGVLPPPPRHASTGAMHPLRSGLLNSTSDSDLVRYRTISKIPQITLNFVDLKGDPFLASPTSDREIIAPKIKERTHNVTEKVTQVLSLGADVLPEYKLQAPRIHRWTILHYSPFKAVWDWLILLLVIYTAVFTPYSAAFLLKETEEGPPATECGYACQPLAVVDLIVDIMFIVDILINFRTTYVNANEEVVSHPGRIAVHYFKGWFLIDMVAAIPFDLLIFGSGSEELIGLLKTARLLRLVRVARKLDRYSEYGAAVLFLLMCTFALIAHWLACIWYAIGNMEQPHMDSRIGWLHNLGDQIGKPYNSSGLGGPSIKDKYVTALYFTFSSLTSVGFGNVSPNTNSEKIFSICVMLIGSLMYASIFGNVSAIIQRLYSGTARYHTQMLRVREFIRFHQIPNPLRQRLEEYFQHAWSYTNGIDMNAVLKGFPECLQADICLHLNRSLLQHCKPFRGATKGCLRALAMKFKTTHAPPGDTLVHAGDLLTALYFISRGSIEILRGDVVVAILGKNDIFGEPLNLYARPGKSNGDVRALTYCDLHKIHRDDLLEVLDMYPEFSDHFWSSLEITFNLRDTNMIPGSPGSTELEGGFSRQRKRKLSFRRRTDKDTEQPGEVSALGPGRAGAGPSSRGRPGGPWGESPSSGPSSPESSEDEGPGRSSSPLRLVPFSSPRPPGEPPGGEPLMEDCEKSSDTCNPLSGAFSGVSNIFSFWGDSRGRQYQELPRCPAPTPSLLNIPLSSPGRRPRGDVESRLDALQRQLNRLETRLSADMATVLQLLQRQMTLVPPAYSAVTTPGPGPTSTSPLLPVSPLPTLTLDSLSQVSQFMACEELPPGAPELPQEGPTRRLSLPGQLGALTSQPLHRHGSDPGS
Assay: Whole-cell patch-clamp recording of IhERG, WT hERG in HEK293 cells at 37 °C
Type: cell-based
Conditions: human, HEK293 cells stably expressing WT hERG, pH 7.4, 30 nM; standard protocol, tails at −40 mV, 4 mM K+; read-out: IhERG tail inhibition
VALUE KIND: inhibition at 5 min, 30 nM

Prompt: Look up inhibition at 5 min, 30 nM for this compound: c1ccc(CCCNCCC(c2ccccc2)c2ccccc2)cc1 [Cavalli-2]
Completion: ~50%

----------
Target: WT hERG (Homo sapiens)
Construct: expressed in transfected cells
Experiment: Whole-cell patch-clamp recording of IhERG, WT hERG in HEK293 cells at 37 °C
Type: cell-based
Conditions: human, HEK293 cells stably expressing WT hERG, pH 7.4, 30 nM; AP voltage clamp; read-out: inhibition of peak IhERG during ventricular action potential waveform
VALUE KIND: inhibition at 5 min, 0.03 µM (%)
Reply numerically in %, unit not repeated.

Prompt: Data request, read-out inhibition at 5 min, 0.03 µM, for c1ccc(CCCNCCC(c2ccccc2)c2ccccc2)cc1
Completion: 42.3

----------
Target: WT hERG (Homo sapiens, UniProt Q12809)
Test: Whole-cell patch-clamp recording of IhERG, WT hERG in HEK293 cells at 37 °C
Details: WT-1; IhERG tails, voltage step −40 mV, 4 mM K+; HEK293, 37 °C
VALUE KIND: IC50 (µM)
The figure you give is taken to be in µM; do not add the unit.

Prompt: Give the measured IC50 of c1ccc(CCCNCCC(c2ccccc2)c2ccccc2)cc1 .
Completion: 0.0356

----------
Target: WT hERG (Homo sapiens)
Construct: expressed in transfected cells
Test: Whole-cell patch-clamp recording of IhERG, WT hERG in HEK293 cells at 37 °C
Assay type: cell-based
Details: human, HEK293 cells stably expressing WT hERG, pH 7.4, WT-1; IhERG tails, voltage step −40 mV, 4 mM K+; HEK293, 37 °C
VALUE KIND: IC50 at 5 min (µM)
Reply numerically in µM, unit not repeated.

Prompt: Fill in the recorded IC50 at 5 min for this compound, with WT hERG (Homo sapiens) as test system: c1ccc(CCCNCCC(c2ccccc2)c2ccccc2)cc1
Completion: 0.036
